Target Desc: Voltage-dependent L-type calcium channel subunit alpha-1D (Rattus norvegicus)
Sequence (P27732 whole entry): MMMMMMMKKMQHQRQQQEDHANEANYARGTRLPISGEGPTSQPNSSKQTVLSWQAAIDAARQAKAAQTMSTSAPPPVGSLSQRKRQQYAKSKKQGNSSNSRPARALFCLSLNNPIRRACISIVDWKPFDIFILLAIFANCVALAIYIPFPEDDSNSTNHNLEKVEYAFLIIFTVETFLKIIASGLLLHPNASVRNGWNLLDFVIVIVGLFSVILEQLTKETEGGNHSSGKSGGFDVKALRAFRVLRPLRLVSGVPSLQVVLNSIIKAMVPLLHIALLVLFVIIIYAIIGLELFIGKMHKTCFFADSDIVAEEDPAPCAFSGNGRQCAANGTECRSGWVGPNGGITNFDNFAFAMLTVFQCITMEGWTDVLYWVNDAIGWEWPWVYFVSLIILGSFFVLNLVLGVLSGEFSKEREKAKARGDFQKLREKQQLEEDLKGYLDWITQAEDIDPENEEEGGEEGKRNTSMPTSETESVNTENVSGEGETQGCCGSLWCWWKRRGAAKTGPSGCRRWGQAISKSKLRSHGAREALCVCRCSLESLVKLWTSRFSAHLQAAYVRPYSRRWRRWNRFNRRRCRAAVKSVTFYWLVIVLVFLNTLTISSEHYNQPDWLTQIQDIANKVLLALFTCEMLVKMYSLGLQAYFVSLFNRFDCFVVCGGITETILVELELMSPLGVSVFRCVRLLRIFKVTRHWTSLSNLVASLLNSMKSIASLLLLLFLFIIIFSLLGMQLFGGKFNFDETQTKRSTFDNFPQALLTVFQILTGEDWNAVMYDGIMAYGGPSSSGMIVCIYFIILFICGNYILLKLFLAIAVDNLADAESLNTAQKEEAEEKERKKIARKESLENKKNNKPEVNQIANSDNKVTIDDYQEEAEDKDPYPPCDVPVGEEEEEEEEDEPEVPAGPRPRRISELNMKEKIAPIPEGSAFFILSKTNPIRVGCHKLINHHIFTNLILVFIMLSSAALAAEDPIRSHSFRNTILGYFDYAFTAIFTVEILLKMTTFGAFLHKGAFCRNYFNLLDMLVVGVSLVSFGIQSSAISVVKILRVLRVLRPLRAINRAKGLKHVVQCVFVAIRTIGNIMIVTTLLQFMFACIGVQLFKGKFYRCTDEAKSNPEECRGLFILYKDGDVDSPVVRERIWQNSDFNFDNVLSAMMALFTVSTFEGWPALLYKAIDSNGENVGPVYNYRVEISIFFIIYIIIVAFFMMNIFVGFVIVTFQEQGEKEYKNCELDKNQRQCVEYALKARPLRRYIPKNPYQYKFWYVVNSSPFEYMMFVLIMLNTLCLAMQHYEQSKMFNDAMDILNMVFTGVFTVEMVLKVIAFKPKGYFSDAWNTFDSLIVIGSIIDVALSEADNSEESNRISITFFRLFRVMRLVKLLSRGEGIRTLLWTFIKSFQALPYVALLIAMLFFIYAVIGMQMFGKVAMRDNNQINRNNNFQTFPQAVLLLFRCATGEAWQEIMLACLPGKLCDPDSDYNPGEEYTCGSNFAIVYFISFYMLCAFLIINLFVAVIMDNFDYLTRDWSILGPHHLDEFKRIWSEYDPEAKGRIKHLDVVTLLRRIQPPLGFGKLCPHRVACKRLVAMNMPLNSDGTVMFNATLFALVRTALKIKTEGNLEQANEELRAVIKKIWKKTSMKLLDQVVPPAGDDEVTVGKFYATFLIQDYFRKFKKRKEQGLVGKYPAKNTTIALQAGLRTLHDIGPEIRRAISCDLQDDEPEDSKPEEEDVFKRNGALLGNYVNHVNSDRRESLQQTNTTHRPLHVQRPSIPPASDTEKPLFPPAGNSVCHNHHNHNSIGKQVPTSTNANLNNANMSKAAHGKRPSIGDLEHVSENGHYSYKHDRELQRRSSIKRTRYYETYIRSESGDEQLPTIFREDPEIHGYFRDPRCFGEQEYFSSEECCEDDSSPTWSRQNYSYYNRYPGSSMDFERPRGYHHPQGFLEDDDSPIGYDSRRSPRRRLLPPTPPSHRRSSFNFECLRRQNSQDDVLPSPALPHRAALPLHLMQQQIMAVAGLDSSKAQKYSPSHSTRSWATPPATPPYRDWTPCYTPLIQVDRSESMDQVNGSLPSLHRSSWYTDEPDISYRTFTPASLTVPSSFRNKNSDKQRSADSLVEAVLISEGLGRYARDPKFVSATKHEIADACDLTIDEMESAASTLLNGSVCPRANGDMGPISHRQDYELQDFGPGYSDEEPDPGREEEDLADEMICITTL
Measurement Protocol: Inhibition of [3H]nitrendipine binding to L-type [Ca2+] channel in rat cortex homogenate, activity expressed as pIC50
Value Kind: IC50

molecule=COc1ccc(C2(c3ccc(OC)cc3)Sc3ccccc3-n3c(CN(C)C)ccc32)cc1 measured_value="2190 nM"
molecule=CN(C)Cc1ccc2n1-c1cc(C(F)(F)F)ccc1SC2(c1ccccc1)c1ccccc1 measured_value="107 nM"
molecule="COc1ccc(C2(OC(C)=O)Sc3ccccc3-n3cccc32)cc1 (stereo not drawn)" measured_value="30.2 nM"
molecule="CC(=O)OC1(c2ccccc2)Sc2ccccc2-n2cccc21 (stereo not drawn)" measured_value="4680 nM"
molecule=COc1ccc([C@@H]2Sc3ccccc3N3C(=O)CC[C@@H]23)cc1 measured_value="4.37 nM"
molecule=CC(=O)O[C@H]1c2ccc(CN(C)C)n2-c2cc(C(F)(F)F)ccc2S[C@H]1c1ccccc1 measured_value="302 nM"
molecule=COC1(OC)C=CC(C2(C3=CCC(OC)(OC)C=C3)Sc3ccc(C(F)(F)F)cc3-n3cccc32)=CC1 measured_value="5010 nM"
molecule=COc1ccc([C@@H]2Sc3ccc(C(F)(F)F)cc3-n3c(CN(C)C)ccc3[C@@H]2OC(C)=O)cc1 measured_value="5010 nM"
molecule=CC(=O)O[C@H]1c2ccc(CN(C)C)n2-c2ccccc2S[C@H]1c1ccccc1 measured_value="5010 nM"
molecule=COc1ccc([C@@H]2Sc3ccccc3-n3c(CN(C)C)ccc3[C@@H]2OC(C)=O)cc1 measured_value="135 nM"
molecule=FC(F)(F)c1ccc2c(c1)-n1cccc1C(c1ccccc1)(c1ccccc1)S2 measured_value="2040 nM"
molecule=Clc1ccc2c(c1)-n1cccc1C(c1ccccc1)(c1ccccc1)S2 measured_value="4370 nM"
molecule="CC(=O)OC1(c2ccccc2)Sc2ccc(C(F)(F)F)cc2-n2cccc21 (stereo not drawn)" measured_value="64.6 nM"
